Sourced from patent US20120045393A1

biological target: LHRH receptor (LHRH binding sites) on EFO-27 human ovarian cancer cells (human); test: competition with [125I-Tyr8]BRU-2477 for binding to EFO-27 cells
Non-standard residues stand in square brackets, D forms with d. d1Nal = N[C@H](Cc1cccc2ccccc12)C(=O)O; DO3A10CM = not defined here; Bpa4 = non-natural residue; azaGly = NNC(=O)O
I'd appreciate it if you marked entries TRUE when EC50 is lower than 1000 nM and FALSE when it is not.

{"binder": "DO3A10CM-G[d1Nal]HWSH[dR]W[Bpa4]P[azaGly]-NH2 (reading uncertain; also: printed as DO3A10CM-Gly-Dnal1-His-Trp-Ser-His-Darg-Trp-Bpa4-Pro-azaGly-NH2) [BRU-2766]", "label.class": "TRUE"}
{"binder": "XHWSHXWXPX (as printed: DO3A10CM-Sar-His-Trp-Ser-His-Darg-Trp-F5fe-Pro-azaGly-NH2) [BRU-2722]", "label.class": "FALSE"}
{"binder": "XHWSHXWXPX (as printed: DO3A10CM-Meala-His-Trp-Ser-His-Darg-Trp-Bpa4-Pro-azaGly-NH2) [BRU-2736]", "label.class": "FALSE"}
{"binder": "XFWSHXWXPX (as printed: DO3A10CM-Sar-Phe-Trp-Ser-His-Darg-Trp-Bpa4-Pro-azaGly-NH2) [BRU-2738]", "label.class": "FALSE"}
{"binder": "XHWSHXWXPX (as printed: DO3A10CM-Sar-His-Trp-Ser-His-Darg-Trp-Thy-Pro-azaGly-NH2) [BRU-2823]", "label.class": "FALSE"}
{"binder": "XHWSHXWXPX (as printed: DO3A10CM-Sar-His-Trp-Ser-His-Darg-Trp-Cfe4-Pro-azaGly-NH2) [BRU-2725]", "label.class": "FALSE"}
